Organism: Homo sapiens
PROCEDURE_SUMMARY: Cytotoxicity of compound was determined against Lo Vo colon cancer cells
Type: functional, cell-based
CONDITION_NOTES: Cancer cell lines
ENDPOINT: IC50

(Q) # IC50 lookup, item O=C(O)[C@@H]1O[C@@H](Oc2ccc(COC(=O)N(CCCl)CCCl)cc2[N+](=O)[O-])[C@@H](O)[C@@H](O)[C@@H]1O
(A) > 400 µM
